The origin of these recorded values is paper PMC8769378.

protocolSummary: Conditional stability constant pGd
Format: physicochemical
experimentalContext: pGd = −log[Gd]free, [Gd^3+] = 1 μM, [L] = 10 μM, pH = 7.4; calculated from the constants
Marks after values point to notes of the source that are not given here.
pGd for assorted molecules

Guide cases for pGd, answers given:
In [3]: df
Out[3]:
                                   molecule    result
0  O=C(O)CN1CCN(CC(=O)O)CCN(CC(=O)O)CCN(CC(=O)O)CC1 [DOTA]  22.09 ^h
1  NC(=O)[C@H](O)CN1CCN(CC(=O)O)CCN(CC(=O)O)CCN(CC(=O)O)CC1 [HPADO3A]  16.88 ^h
2  O=C(O)CN1CCN(CC(=O)O)CCN(C(CO)C(O)CO)CCN(CC(=O)O)CC1 (centres unmarked) [BT-DO3A]  15.63 ^h
3  CC(O)CN1CCN(CC(=O)O)CCN(CC(=O)O)CCN(CC(=O)O)CC1 (centres unmarked) [HPDO3A]  18.16 ^h

Data request: Data request, read-out pGd, for O=C(O)CN1CCN(CC(=O)O)CCN(C[C@@H](O)C(=O)O)CCN(CC(=O)O)CC1 [L2]
Data returned: 16.87 ^h

* * *

protocolSummary: Acid-assisted dissociation kinetics of Gd^III complexes followed by ^1H NMR relaxometry
experimentalContext: calculated from acid-assisted dissociation only, pH = 7.4, 298 K; comparators from literature constants
endpointName: kd at pH = 7.4

Guide cases for kd at pH = 7.4, answers given:
>>> df
                                   molecule              result
0  O=C([O-])CN1CCN(CC(=O)[O-])CCN(CC(=O)[O-])CCN(CC(=O)[O-])CC1.[Gd+3]  7.28 × 10^–14 s^–1
1  CC(O)CN1CCN(CC(=O)[O-])CCN(CC(=O)[O-])CCN(CC(=O)[O-])CC1.[Gd+3] (centres unmarked)  1.15 × 10^–11 s^–1
2  O=C([O-])CN1CCN(CC(=O)[O-])CCN(C(CO)C(O)CO)CCN(CC(=O)[O-])CC1.[Gd+3] (centres unmarked)  1.35 × 10^–12 s^–1

Data request: Data request, read-out kd at pH = 7.4, for O=C([O-])CN1CCN(CC(=O)[O-])CCN(CC(O)C(=O)O)CCN(CC(=O)[O-])CC1.[Gd+3] (centres unmarked)
Data returned: 9.01 × 10^–12 s^–1

Data request: Then this molecule: `NC(=O)[C@H](O)CN1CCN(CC(=O)[O-])CCN(CC(=O)[O-])CCN(CC(=O)[O-])CC1.[Gd+3]`
Data returned: 6.41 × 10^–12 s^–1
